Hi there, I'd appreciate the recorded phosphorylation enrichment for every entry that follows.
Test system: c-Abl (mouse);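 also: 11-residue human phosphosite peptides and single-mutation variants displayed on the E. coli surface, counted by deep sequencing, each peptide's frequency after selection divided by its frequency in the unselected input library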;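 also: frequency after pTyr selection over input frequency; kinase dosed for 20-30% of maximal phosphorylation in three min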
experiment_summary: phosphorylation enrichment, bacterial display (enrichment ratio); higher = better substrate or ligand; peptides without Tyr show the background

I would be grateful if you could share the reported phosphorylation enrichment for HVPEEYKPKQG [SAXO2_Y37] .
0.943

I would be grateful if you could share the reported phosphorylation enrichment for AQAERYDDMAA [YWHAG_Y20_E15A] .
0.668

I would be grateful if you could share the reported phosphorylation enrichment for KFMVGYEMLAQ [GALT_Y339] .
0.622

I would be grateful if you could share the reported phosphorylation enrichment for AAVLNYKAGRD [GRIN2A_Y737] .
0.389

I would be grateful if you could share the reported phosphorylation enrichment for IRSGIYFKPES [L2HGDH_Y102_H98R_YF] .
2.88

I would be grateful if you could share the reported phosphorylation enrichment for HESEIYGKVCY [CSRP3_Y57_C58G] .
2.81

I would be grateful if you could share the reported phosphorylation enrichment for FFIMMYTGSSV [DNAJC13_Y1131_N1135S] .
0.743

I would be grateful if you could share the reported phosphorylation enrichment for TGSFTCEAVEL [MTMR14_Y462_Y462C] .
0.77

I would be grateful if you could share the reported phosphorylation enrichment for CSHKFYGKQCC [ADAMTS16_Y1211] .
0.505

I would be grateful if you could share the reported phosphorylation enrichment for RGYRQDAYDGK [HLA-A_Y140] .
0.859

I would be grateful if you could share the reported phosphorylation enrichment for EEGESHVCSSD [DCX_Y125_Y125H] .
0.673

I would be grateful if you could share the reported phosphorylation enrichment for HAKKNYGNSSV [HDX_Y197] .
0.508

I would be grateful if you could share the reported phosphorylation enrichment for FHKALYTVRSF [PDE6C_Y266_YF] .
0.666

I would be grateful if you could share the reported phosphorylation enrichment for INPIIYAFVGG [CCR5_Y297_E302G] .
14.4

I would be grateful if you could share the reported phosphorylation enrichment for YEDTLYTVLHR [UNC13D_Y61_A59T] .
3.32

I would be grateful if you could share the reported phosphorylation enrichment for PHQTIYSALMI [FGF23_Y70] .
20.6

I would be grateful if you could share the reported phosphorylation enrichment for FQEPVYSVAFS [TBL1X_Y509_H504Y_YF] .
27.4

I would be grateful if you could share the reported phosphorylation enrichment for ADLTEYLSTHY [UQCRC1_Y219] .
0.649

I would be grateful if you could share the reported phosphorylation enrichment for ALVDTYCRHNY [HLA-DRB1_Y107_A103L] .
0.515

I would be grateful if you could share the reported phosphorylation enrichment for KNKELYSDPFD [PDE10A_Y300_L303P] .
0.592

I would be grateful if you could share the reported phosphorylation enrichment for KVALPYKPFFF [POLE_Y100_YF] .
0.656

I would be grateful if you could share the reported phosphorylation enrichment for RSGIYYKPESL [L2HGDH_Y103_H98R] .
45.6

I would be grateful if you could share the reported phosphorylation enrichment for GQSKGYRPKLF [SIPA1L3_Y1376_YF] .
0.448

Reference source: the supplement of paper PMC10065799
